biological target: IGF-1R (Homo sapiens (Human)); test: Example B-1: IGF-1R Assay (PC3 cells, IGF1 stimulation, AlphaLISA); format: cell-based; settings: 200 ng/mL IGF1 stimulation, read-out: Biological Activity against IGF-1R IC50
Would you kindly list IC50 for each of these compounds?

CN(C)CC1COc2cc(Nc3nccc(Nc4cnc5ccccc5c4)n3)ccc2O1 (stereo not drawn)	≤ 500 nM
CN(C)[C@H]1C[C@H](Oc2ccc(Nc3nccc(Nc4cnc5ccccc5c4)n3)cc2)C1	≤ 500 nM

Hey, can you go through the list below and give me IC50 for every item?
1. COc1cc(Nc2nccc(Nc3cnc4ccccc4c3)n2)ccc1N1CCN(C)CC1
2. COc1cc(Nc2nccc(Nc3cc4cccc(F)c4[nH]c3=O)n2)cnc1N1CC2(COC2)C1
3. N#Cc1ccc2ncc(Nc3ccnc(Nc4ccc(OCCCN5CCOCC5)cc4)n3)cc2c1
4. COc1cc(Nc2nccc(Nc3cnc4c(C(F)(F)F)cccc4c3)n2)ccc1OCCCN1CCCCC1
5. COc1cc(Nc2nccc(Nc3cc4ccc(F)c(F)c4[nH]c3=O)n2)ccc1O[C@H]1C[C@@H](N(C)C)C1
6. COc1cc(Nc2nccc(Nc3cnc4cc(F)c(F)cc4c3)n2)cnc1N1CC(N(C)C)C1

≤ 500 nM
≤ 500 nM
2000 to 10000 nM
≤ 500 nM
≤ 500 nM
≤ 500 nM

* * *

molecular target: IGF-1R (Homo sapiens (Human), UniProt P08069); assay: Example B-1: IGF-1R Assay (PC3 cells, IGF1 stimulation, AlphaLISA); assay type: cell-based; settings: 200 ng/mL IGF1 stimulation, read-out: Biological Activity against IGF-1R IC50
Sequence (P08069 31-1367): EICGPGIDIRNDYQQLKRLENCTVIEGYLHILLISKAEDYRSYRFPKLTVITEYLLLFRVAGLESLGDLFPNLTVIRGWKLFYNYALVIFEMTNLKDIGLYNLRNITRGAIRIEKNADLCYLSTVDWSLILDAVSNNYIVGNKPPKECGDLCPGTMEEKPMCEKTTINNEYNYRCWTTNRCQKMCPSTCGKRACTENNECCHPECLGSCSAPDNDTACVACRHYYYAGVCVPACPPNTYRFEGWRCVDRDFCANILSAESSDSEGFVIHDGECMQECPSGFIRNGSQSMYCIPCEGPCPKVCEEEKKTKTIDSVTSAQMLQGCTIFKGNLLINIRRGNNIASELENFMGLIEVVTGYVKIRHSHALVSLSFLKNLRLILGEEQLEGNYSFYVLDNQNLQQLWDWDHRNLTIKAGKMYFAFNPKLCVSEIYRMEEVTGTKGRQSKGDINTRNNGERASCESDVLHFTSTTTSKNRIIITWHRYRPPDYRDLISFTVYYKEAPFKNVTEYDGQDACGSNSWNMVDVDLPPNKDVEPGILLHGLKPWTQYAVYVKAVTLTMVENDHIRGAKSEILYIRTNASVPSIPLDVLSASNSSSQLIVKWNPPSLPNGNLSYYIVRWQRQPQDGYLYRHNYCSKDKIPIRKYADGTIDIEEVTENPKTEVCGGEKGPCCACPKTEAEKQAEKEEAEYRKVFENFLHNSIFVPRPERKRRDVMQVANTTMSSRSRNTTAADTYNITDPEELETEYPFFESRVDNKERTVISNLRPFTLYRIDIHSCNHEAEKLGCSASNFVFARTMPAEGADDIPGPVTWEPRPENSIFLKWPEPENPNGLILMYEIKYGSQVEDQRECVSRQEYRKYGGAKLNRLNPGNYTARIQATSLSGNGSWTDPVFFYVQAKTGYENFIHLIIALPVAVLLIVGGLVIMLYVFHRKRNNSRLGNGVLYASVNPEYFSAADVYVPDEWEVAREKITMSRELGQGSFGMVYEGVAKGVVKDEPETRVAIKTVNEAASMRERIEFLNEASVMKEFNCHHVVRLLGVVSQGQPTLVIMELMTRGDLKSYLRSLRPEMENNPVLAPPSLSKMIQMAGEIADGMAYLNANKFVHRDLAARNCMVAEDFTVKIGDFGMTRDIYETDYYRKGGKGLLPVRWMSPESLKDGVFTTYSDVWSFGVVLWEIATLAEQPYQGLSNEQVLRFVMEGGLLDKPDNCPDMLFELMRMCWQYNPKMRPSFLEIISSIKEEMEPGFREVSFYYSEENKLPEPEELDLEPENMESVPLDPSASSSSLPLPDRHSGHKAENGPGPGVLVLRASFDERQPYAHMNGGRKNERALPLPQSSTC
pIC50: −log10 of the molar value.
Could you please report measured pIC50 for the items listed next?

Please review the following examples before continuing.
c1ccc2ncc(Nc3ccnc(Nc4ccc(OCCCN5CCOCC5)cc4)n3)cc2c1	≥ 6.30
COc1cc(Nc2nccc(Nc3cnc4cc(Br)cnc4c3)n2)ccc1OC1CN(C)C1	5.00 to 5.70
COc1cc(C2CCOCC2)ncc1Nc1nccc(Nc2cc3cccc(F)c3[nH]c2=O)n1	≥ 6.30
COc1cc(Nc2nccc(Nc3cnc4ccc(Cl)cc4c3)n2)cnc1N1CCN(C2COC2)CC1	≥ 6.30
COc1cc(Nc2nccc(Nc3cc(Cl)cnc3C(N)=O)n2)ccc1O[C@H]1C[C@@H](N(C)C)C1	≥ 6.30
COc1cc(Nc2nccc(Nc3cnc4ccc(Cl)cc4c3)n2)ccc1N1CCOCC1	≥ 6.30

Provide the reported pIC50 of each entry below, same order.
1. COc1cc(Nc2nccc(Nc3cc4ccccc4nc3OC)n2)ccc1O[C@H]1C[C@H](N(C)C)C1
2. COc1cc(Nc2nccc(Nc3cnc4cc(F)c(F)cc4c3)n2)cnc1N1CCN(CC(F)(F)F)CC1
3. COc1cc(Nc2nccc(Nc3cnc4c(F)cccc4c3)n2)cnc1O[C@H]1C[C@@H](N(C)C)C1

≥ 6.30
5.70 to 6.30
≥ 6.30

* * *

biological target: IGF-1R (Homo sapiens (Human), UniProt P08069); assay: Example B-1: IGF-1R Assay (PC3 cells, IGF1 stimulation, AlphaLISA); type: cell-based; details: 200 ng/mL IGF1 stimulation, read-out: Biological Activity against IGF-1R IC50
quantityKind: IC50

Consider the reported IC50 for these compounds:
COc1cc(Nc2nccc(Nc3cnc4c(F)c(F)ccc4c3)n2)cnc1O[C@H]1C[C@@H](N(C)C)C1	≤ 500 nM
COc1cc(Nc2nccc(Nc3cnc4[nH]ncc4c3)n2)ccc1O[C@H]1C[C@@H](N(C)C)C1	500 to 2000 nM
COc1cc(Nc2nccc(Nc3cnc4ccccc4c3)n2)ccc1O[C@H]1CC[C@H](N2CCOCC2)CC1	≤ 500 nM
COc1cc(Nc2nccc(Nc3cnc4cc(NC(C)=O)ccc4c3)n2)ccc1O[C@H]1C[C@@H](N(C)C)C1	≤ 500 nM
COc1cc(Nc2nccc(Nc3cnc4cc(C)ccc4c3)n2)ccc1O[C@H]1C[C@H](N(C)C)C1	≤ 500 nM
c1ccc2ncc(Nc3ccnc(Nc4ccc(O[C@H]5C[C@@H](N6CCCCC6)C5)cc4)n3)cc2c1	≤ 500 nM
c1ccc2ncc(Nc3ccnc(Nc4ccc5ccn(CC6CCCC6)c5c4)n3)cc2c1	≤ 500 nM
Oc1ccc2ncc(Nc3ccnc(Nc4ccc(OCCCN5CCOCC5)cc4)n3)cc2c1	≤ 500 nM
C[C@@H]1COc2ncc(Nc3ccnc(Nc4ccc(OCCCN5CCOCC5)cc4)n3)cc2O1	≤ 500 nM
COc1cc(Nc2nccc(Nc3cnc4cccc(Cl)c4c3)n2)ccc1OCCCN1CCCCC1	≤ 500 nM

Each compound below has a reported value. Please supply its IC50.
1. CN(C)[C@H]1C[C@@H](Oc2ncc(Nc3nccc(Nc4cnc5c(c4)OCCO5)n3)cc2C#N)C1
2. COc1cc(Nc2nccc(Nc3cnc4c(=O)n(C)ncc4c3)n2)ccc1O[C@H]1C[C@@H](N(C)C)C1
3. COc1cc(Nc2nccc(Nc3cnc4c(F)c(F)ccc4c3)n2)ccc1OCCCN1CCCCC1
4. COc1cc(Nc2nccc(Nc3cnc4c(F)cccc4c3)n2)ccc1OCCCN1CCCCC1
5. COc1cc(Nc2nccc(Nc3cc4ccccc4nc3C)n2)ccc1OCCCN1CCCCC1
6. COc1cc(Nc2nccc(Nc3cnc4cc(F)c(F)cc4c3)n2)cnc1N1CC2CCC(C1)O2

1. ≤ 500 nM
2. > 10000 nM
3. ≤ 500 nM
4. ≤ 500 nM
5. 500 to 2000 nM
6. 500 to 2000 nM

* * *

molecular target: IGF-1R (Homo sapiens (Human), UniProt P08069); experiment: Example B-1: IGF-1R Assay (PC3 cells, IGF1 stimulation, AlphaLISA); type: cell-based; conditions: 200 ng/mL IGF1 stimulation, read-out: Biological Activity against IGF-1R IC50
pIC50: −log10 of the molar value.
quantityKind: pIC50

CC1(C)COc2cc(Nc3ccnc(Nc4ccc(OCCCN5CCOCC5)cc4)n3)cnc2O1 [Compound 65]	≥ 6.30
COc1cc(Nc2nccc(Nc3cnc4ccccc4c3)n2)ccc1O[C@H]1CC[C@H](N(C)C)CC1 [Compound 17]	≥ 6.30
CN(C)CC1Cc2ccc(Nc3nccc(Nc4cc5cccc(F)c5[nH]c4=O)n3)cc2O1 (stereo not shown) [Compound 243]	≥ 6.30

Give measured pIC50 for every item shown.
1. Brc1ccc2cc(Nc3ccnc(Nc4ccc(OCCCN5CCOCC5)cc4)n3)cnc2c1 [Compound 409]
2. CN(C)[C@H]1C[C@@H](Oc2ccc(Nc3nccc(Nc4cnc5c(c4)OCCO5)n3)cc2)C1 [Compound 260]
3. COc1cc(N2CCC(C)(O)CC2)ncc1Nc1ncc(F)c(Nc2cc3ccccc3nc2C(N)=O)n1 [Compound 492]
4. COc1cc(Nc2nccc(Nc3cnc4c(cnn4C)c3)n2)ccc1O[C@H]1C[C@@H](N(C)C)C1 [Compound 280]
5. COc1ccc2cc(Nc3ccnc(Nc4ccc(O[C@H]5C[C@H](N(C)C)C5)c(OC)c4)n3)cnc2c1 [Compound 337]
6. COc1cc(Nc2nccc(Nc3cnc4cc[nH]c4c3)n2)ccc1O[C@H]1C[C@@H](N(C)C)C1 [Compound 299]

1: 5.00 to 5.70; 2: ≥ 6.30; 3: ≥ 6.30; 4: ≥ 6.30; 5: ≥ 6.30; 6: 5.70 to 6.30

Give me pIC50 for each of these molecules, listed below.
1. COc1cc(Nc2ncc(F)c(Nc3cc4cccc(F)c4[nH]c3=O)n2)ccc1O[C@H]1C[C@@H](N(C)C)C1 [Compound 242]
2. COc1cc(Nc2nccc(Nc3cnc4cc(OC(F)(F)F)ccc4c3)n2)ccc1O[C@H]1C[C@H](N(C)C)C1 [Compound 8]
3. CN(C)C[C@H]1COc2cc(Nc3nccc(Nc4cnc5ccc(Cl)cc5c4)n3)ccc2O1 [Compound 144]
4. O=S1(=O)CCN([C@H]2CC[C@@H](Oc3ccc(Nc4nccc(Nc5cnc6ccccc6c5)n4)cc3)CC2)CC1 [Compound 38]

1. 5.00 to 5.70
2. ≥ 6.30
3. ≥ 6.30
4. ≥ 6.30

* * *

target: IGF-1R (Homo sapiens (Human), UniProt P08069); experiment: Example B-1: IGF-1R Assay (PC3 cells, IGF1 stimulation, AlphaLISA); format: cell-based; conditions: 200 ng/mL IGF1 stimulation, read-out: Biological Activity against IGF-1R IC50
pIC50: −log10 of the molar value.
quantityKind: pIC50

# example entries with known answers
COc1ccc2cc(Nc3ccnc(Nc4ccc(O[C@H]5C[C@H]6COC[C@@H](C5)N6C)cc4)n3)cnc2c1	5.70 to 6.30
COC1CCc2ncc(Nc3ccnc(Nc4ccc(OCCCN5CCOCC5)cc4)n3)cc2C1 (stereo not shown)	5.70 to 6.30
COc1nc(N2CCC(C)(O)CC2)ccc1Nc1nccc(Nc2cnc3ccc(Cl)cc3c2)n1	≥ 6.30
COc1cc(Nc2nccc(Nc3cnc4[nH]c(C)cc4c3)n2)ccc1O[C@H]1C[C@@H](N(C)C)C1	≥ 6.30
COc1cc(Nc2nccc(Nc3cnc4c(c3)CC[C@@H](C)C4)n2)ccc1OCCCN1CCCCC1	≥ 6.30

Value sought for every listed molecule: pIC50.
1. COc1cc(Nc2nccc(Nc3cnc4ccc(Br)cc4c3)n2)ccc1O[C@H]1CC[C@@H](N2CCOCC2)CC1
2. COc1cc(Nc2nccc(Nc3cnc4ccccc4c3)n2)cc(C#N)c1O[C@H]1C[C@H](N(C)C)C1

["≥ 6.30", "≥ 6.30"]

These measurements were taken from patent US20250171431A1.
